# System: BT-549
# assay: NCI tumour cell line growth inhibition, 48 h
Calls of active or inactive are those of the source. Rule as the data show it: active = GI50 up to about 1.1 µM and inactive = higher.
measurement_name: GI50

| molecule | system_under_test | readout_value |
| --- | --- | --- |
| CC(C)C1=C(Cc2ccccc2)C(=O)O/C1=C\c1cc(Cl)c(O)c(Cl)c1 | BT-549 | > 10 µM (inactive) |
| CCCCCCCCCCCCCCCCCCNc1ccn(C2OC(CO)C(OP(=O)(O)OCC(COP(=O)(O)OCC3OC(n4cc(F)c(NCCCCCCCCCCCCCCCCCC)nc4=O)CC3O)OC(=O)CCCCCCCCCCCCCCC)C2O)c(=O)n1 (configuration not stated) | BT-549 | > 100 µM (inactive) |
| Cc1ccsc1/C=N/Nc1cnccn1 | BT-549 | > 100 µM (inactive) |
| Cc1cc(=O)n2nc(CSc3nnc(N)s3)sc2n1 | BT-549 | > 100 µM (inactive) |
| N#Cc1nc(CCN2C(=O)c3ccccc3C2=O)oc1N | BT-549 | > 100 µM (inactive) |
| c1c[nH]c(-c2ccc(-c3ccc[nH]3)c3nsnc23)c1 | BT-549 | 27 µM (inactive) |
| CC(C)(C)C(=O)CC1(O)C=C(O)C(O)(CC(=O)C(C)(C)C)O1 (configuration not stated) | BT-549 | 66.4 µM (inactive) |
| CC(=O)OC12c3ccccc3C(c3ccccc31)C1C(=O)N(Nc3ccccc3)C(=O)C12 (configuration not stated) | BT-549 | > 100 µM (inactive) |
| CCOc1cccc(/C=N\c2ccccc2SSc2ccccc2/N=C\c2cccc(OCC)c2O)c1O | BT-549 | 1.58 µM (inactive) |
| CN(C)CCNC(=O)c1cccc2c(NCCN(C)C)c3ccccc3nc12 | BT-549 | 7.59 µM (inactive) |
| CCN(CC)CCNC(=O)c1cc2cc(NC(=O)c3cc4cc(NC(=O)c5cc6cc([N+](=O)[O-])ccc6[nH]5)ccc4[nH]3)ccc2[nH]1 | BT-549 | > 100 µM (inactive) |
| C=C(CCOC)CCC1CCCCC(CN(C)C)C1=O (configuration not stated) | BT-549 | > 100 µM (inactive) |

From: ChEMBL document CHEMBL1201862
